tested-target: α1A Human Adrenergic Receptor (Homo sapiens, UniProt P25100)
Construct: The entire coding region of α1A (1719 bp); expressed in transfected cells
Sequence (P25100 whole entry): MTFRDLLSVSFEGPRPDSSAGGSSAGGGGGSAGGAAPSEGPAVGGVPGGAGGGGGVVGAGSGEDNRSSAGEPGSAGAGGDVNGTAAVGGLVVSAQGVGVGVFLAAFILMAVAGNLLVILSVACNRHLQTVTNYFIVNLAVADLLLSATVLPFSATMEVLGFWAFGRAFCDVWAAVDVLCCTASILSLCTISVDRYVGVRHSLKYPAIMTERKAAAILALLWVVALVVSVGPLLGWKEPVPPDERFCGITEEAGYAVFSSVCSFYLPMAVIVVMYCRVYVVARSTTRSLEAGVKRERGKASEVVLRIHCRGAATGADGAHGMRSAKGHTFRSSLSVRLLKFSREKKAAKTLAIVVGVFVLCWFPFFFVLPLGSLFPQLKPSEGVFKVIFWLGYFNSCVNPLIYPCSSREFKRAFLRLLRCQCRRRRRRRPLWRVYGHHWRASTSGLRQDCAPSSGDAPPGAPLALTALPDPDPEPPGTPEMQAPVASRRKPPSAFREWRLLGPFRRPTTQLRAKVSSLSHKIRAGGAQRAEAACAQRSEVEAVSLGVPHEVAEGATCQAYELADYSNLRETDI
assay-text: Radioligand binding, [3H]prazosin, cloned human α1A adrenergic receptor
experimental-conditions: PKi alpha-1 1a
# pKi values compiled below
Schema: pKi number; meaning minus log10 of the concentration expressed in molar units.

// known answers, use as guide
> print(dat)
                                   compound  assay.result
1  CCNC(=O)C1=C(CC)NC(CC)=C(C(=O)NCCCN2CCC(C(=O)OCC)(c3ccccc3)CC2)C1c1ccc([N+](=O)[O-])cc1 (stereo not drawn) [Example 182]          5.47
2  CCOC(=O)C1(c2ccccc2)CCN(CCCNC(=O)C2=C(COC)NC(CC)=C(C(=O)O)C2c2ccc([N+](=O)[O-])cc2)CC1 (stereo not drawn) [Example 240]          5.00

// moving on: another record for pKi
Exam item: Look up and report measured pKi for this entry: CC1=C(C(N)=O)C(c2ccc([N+](=O)[O-])cc2)C(C(=O)NCCCN2CCC(C(=O)O)(c3ccccc3)CC2)=C(C)N1 (stereo not drawn) [Example 210]
Marked response: 4.14

----------
Overview of reported pKi across a group of compounds:
tested-target: α2B receptor (Homo sapiens, UniProt P18089)
Construct: host or cells: LM(tk-) cells, line L-NGC-α2B
Sequence (P18089 whole entry): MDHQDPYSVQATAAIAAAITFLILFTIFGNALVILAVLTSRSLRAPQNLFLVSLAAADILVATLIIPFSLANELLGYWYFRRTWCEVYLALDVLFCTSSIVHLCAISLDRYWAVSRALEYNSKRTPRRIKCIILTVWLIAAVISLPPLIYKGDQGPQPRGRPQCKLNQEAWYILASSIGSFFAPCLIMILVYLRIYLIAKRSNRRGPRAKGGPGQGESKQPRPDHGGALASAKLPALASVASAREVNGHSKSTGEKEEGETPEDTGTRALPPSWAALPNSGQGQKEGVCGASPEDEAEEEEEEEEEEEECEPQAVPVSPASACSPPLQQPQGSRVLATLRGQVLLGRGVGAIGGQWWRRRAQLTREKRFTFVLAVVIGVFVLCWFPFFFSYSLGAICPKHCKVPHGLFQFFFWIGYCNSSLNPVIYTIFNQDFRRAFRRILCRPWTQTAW
assay-text: Competition binding, [3H]rauwolscine, human α2B receptor
experimental-conditions: pKi alpha-2 2b, [3H]rauwolscine, human α2B receptor, LM(tk−) cells
Scale: pKi equals -log10([C]), with [C] in mol/L.

compound	property-name	assay-result
CCNC(=O)C1=C(COCCN=[N+]=[N-])NC(CC)=C(C(=O)NCCCN2CCC(c3ccccc3)(c3ccccc3)CC2)C1c1ccc([N+](=O)[O-])cc1 (centres unmarked)	pKi	5.96

Exam item: Name the recorded pKi of the compound listed here: CNC(=O)C1=C(C)NC(C)=C(C(=O)NCCCN2CCC(O)(c3ccccc3)CC2)C1c1ccc([N+](=O)[O-])cc1 (centres unmarked)
Marked response: 6.46

Exam item: Answer with the recorded pKi for the compound listed here: "CCC1=C(C(=O)NCCCN2CCC(c3ccccc3)(c3ccccc3)CC2)C(c2cccc(OC)c2)C(C(=O)NCCCN2CCC(c3ccccc3)(c3ccccc3)CC2)=C(CC)N1"
Marked response: 6.35

Exam item: Return reported pKi. Input compound: CC1=C(C(N)=O)C(c2ccc(S(C)(=O)=O)cc2)C(C(=O)NCCCN2CCC(c3ccccc3)(c3ccccc3)CC2)=C(C)N1 (centres unmarked)
Marked response: 6.11

Exam item: Retrieve pKi measured for COc1cccc(C2C(C(N)=O)=C(C)NC(C)=C2C(=O)NCCCN2CCC(c3ccccc3)(c3ccccc3)CC2)c1 (centres unmarked) and print it.
Marked response: 6.36

Exam item: Respond only with pKi recorded for CCC1=C(C(N)=O)C(c2ccc([N+](=O)[O-])cc2)C(C(=O)NCCCN2CCC(C#N)(c3ccccc3)CC2)=C(CC)N1 (single isomer, unassigned; (+)) [(+)-102]
Marked response: 5.72

----------
tested-target: α2B receptor (Homo sapiens, UniProt P18089)
Construct: host or cells: LM(tk-) cells, line L-NGC-α2B
assay-text: Competition binding, [3H]rauwolscine, human α2B receptor
experimental-conditions: [3H]rauwolscine, human α2B receptor, LM(tk-) cells; read-out: PKi alpha-2 2b (converted)
property-name: Ki (nM)
Write the value in nM as a bare number.

Study these solved cases before continuing.
> print(dat)
                                   molecule  assay.result
1  COC(=O)C1(c2ccccc2)CCN(CCCNC(=O)C2=C(COCCN)NC(C)=C(C(C)=O)C2c2ccc(F)cc2)CC1 (centres unmarked)          2750
2  COC(=O)C1=C(C)NC(C)=C(C(=O)NCCCN2CCC(c3ccccc3)CC2)C1c1ccc2c(c1)OCO2 (centres unmarked)          39.8
3  CCC1=C(C(=O)NN2CCOCC2)C(c2ccc([N+](=O)[O-])cc2)C(C(=O)NCCCN2CCC(c3ccccc3)(c3ccccc3)CC2)=C(COC)N1 (centres unmarked)          1150

Exam item: Identify the reported Ki for the following entry. CCOC(=O)C1(c2ccccc2)CCN(CCCNC(=O)C2=C(COCC(F)(F)F)NC(C)=C(C(N)=O)C2c2ccc([N+](=O)[O-])cc2)CC1 (centres unmarked)
Marked response: 977

Exam item: Please indicate Ki recorded for CCOC(=O)C1(c2ccccc2)CCN(CCCNC(=O)C2=C(COCCN)NC(C)=C(C(C)=O)C2c2ccc3c(c2)OCO3)CC1 (centres unmarked)
Marked response: 2140

----------
Reported melting point by item:

Here are 3 molecules together with their reported answers.
molecule	melting point
CCCC1=C(C(=O)O)C(c2ccc([N+](=O)[O-])cc2)C(C(=O)NCCCN2CCC(c3ccccc3)(c3ccccc3)CC2)=C(CCC)N1 (stereo not drawn) [Example 161]	126 to 130 °C
CCNC(=O)C1=C(COCCN=[N+]=[N-])NC(CC)=C(C(=O)NCCCN2CCC(c3ccccc3)(c3ccccc3)CC2)C1c1ccc([N+](=O)[O-])cc1 (stereo not drawn) [Example 147]	83 to 87 °C
COC(=O)C1=C(C)NC(C)=C(C(=O)NCCCN2CCC(c3ccccc3)CC2)C1c1ccc(Cl)c([N+](=O)[O-])c1 (stereo not drawn) [Example 17]	191 to 192 °C

Exam item: Please report the measured melting point for COC(=O)C1=C(C)N(C)C(C)=C(C(=O)OCCCN2CCC(c3ccccc3)(c3ccccc3)CC2)C1c1ccc([N+](=O)[O-])cc1.Cl.O (stereo not drawn) (hydrate or solvate) [Example 92]
Marked response: 127 to 128 °C

Exam item: Entry COC(=O)C1=C(C)NC(C)=C(C(=O)NCCCN2CCC(c3ccccc3)(c3ccccc3)CC2)C1c1ccc(C)cc1 (stereo not drawn) [Example 19] needs its melting point filled in; supply it.
Marked response: 234 to 235 °C

----------
tested-target: α1C Human Adrenergic Receptor (Homo sapiens)
Construct: The entire coding region of α1C (1401 bp); expressed in transfected cells
Sequence (P35348 1-466): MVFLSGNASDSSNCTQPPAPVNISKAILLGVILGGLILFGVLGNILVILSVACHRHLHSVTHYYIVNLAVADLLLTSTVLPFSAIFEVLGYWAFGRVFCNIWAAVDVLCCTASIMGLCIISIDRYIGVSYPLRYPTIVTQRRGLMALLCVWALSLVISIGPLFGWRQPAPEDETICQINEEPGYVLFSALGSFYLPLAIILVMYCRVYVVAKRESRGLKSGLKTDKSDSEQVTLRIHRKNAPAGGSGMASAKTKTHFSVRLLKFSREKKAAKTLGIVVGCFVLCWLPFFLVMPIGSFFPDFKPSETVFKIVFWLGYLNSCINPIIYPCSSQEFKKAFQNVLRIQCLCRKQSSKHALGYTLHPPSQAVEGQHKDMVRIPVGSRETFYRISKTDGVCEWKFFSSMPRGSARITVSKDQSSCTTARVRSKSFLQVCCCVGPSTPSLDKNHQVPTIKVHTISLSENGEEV
assay-text: Radioligand binding, [3H]prazosin, cloned human α1C adrenergic receptor
experimental-conditions: PKi alpha-1 1c, cloned human receptor, LM(tk-) cell membranes, mean
property-name: Ki (nM)
Answer format: numeric, nM implied, no suffix.

Worked cases, answers included:
molecule	tested-target	units-label	Ki
CCC1=C(C(=O)NC)C(c2ccc([N+](=O)[O-])cc2)C(C(=O)NCCCN2CCC(c3ccccc3)(c3ccccc3)CC2)=C(CCCCOC)N1 (stereo not drawn) [Example 173]	α1C Human Adrenergic Receptor (Homo sapiens)	nM	3.98
CC(=O)C1=C(C)NC(CCCCN)=C(C(=O)NCCCN2CCC(c3ccccc3)(c3ccccc3)CC2)C1c1ccc([N+](=O)[O-])cc1 (stereo not drawn) [Example 176]	α1C Human Adrenergic Receptor (Homo sapiens)	nM	3.72
COc1ccc(C2(c3ccccc3)CCN(CCCNC(=O)C3=C(COCCN=[N+]=[N-])NC(C)=C(C(N)=O)C3c3ccc([N+](=O)[O-])cc3)CC2)cc1 (stereo not drawn) [Example 184]	α1C Human Adrenergic Receptor (Homo sapiens)	nM	9.55
CNC(=O)C1=C(C)NC(C)=C(C(=O)NCCCN2CCC(c3ccccc3)(c3ccccc3)CC2)C1c1ccc2c(c1)OCCO2 (stereo not drawn) [Example 163]	α1C Human Adrenergic Receptor (Homo sapiens)	nM	18.6
CCC1=C(C(=O)NC)C(c2ccc([N+](=O)[O-])cc2)C(C(=O)NCCCN2CCC(c3ccccc3)(c3ccccc3)CC2)=C(CCCCN)N1 (stereo not drawn) [Example 172]	α1C Human Adrenergic Receptor (Homo sapiens)	nM	2.82

With those in mind, consider the next molecule.
Exam item: Name the value of Ki reported for CCC1=C(C(=O)O)C(c2ccc([N+](=O)[O-])cc2)C(C(=O)NCCCN2CCC(C#N)(c3ccccc3)CC2)=C(COC)N1 (stereo not drawn) [Example 222] when tested on α1C Human Adrenergic Receptor (Homo sapiens).
Marked response: 41.7
